Reference source: PubChem BioAssay (NCI)

- Test system: SF-268 CNS
- Assay Notes: NCI-60 one-dose screen, 48 h (100 = growth as untreated, 0 = no growth, -100 = all killed)
- Test Settings: 10 µM unless noted
- Protocol: Cells are grown in 96 well plates and exposed to the test compound for 48 hours. Compounds are tested at a single concentration, which is 10^-5 M for most compounds. The reported endpoint is percent growth (GI% or GIPRCNT), where numbers from 0 - 100% represent growth inhibition, and numbers from -100% - 0 represent cell death. For example, a value of 40 represents 60% growth inhibition. A value of 0 means no net growth occurred over the course of the experiment. […]
The panel holds about 83,000 compounds, 20% with a hit somewhere; the sample as a whole holds those more often.
Think of 90% as a floor: if growth stands on it or above, it is True; beneath it, False.

[
  {
    "Molecule": "COc1ccc(/C=C2\\COc3ccc(-c4ccccc4)cc3C2=O)cc1O",
    "Target": "SF-268 CNS",
    "Class Label": "False"
  },
  {
    "Molecule": "CC(c1ccccc1)n1ccnc1CO (stereo not given)",
    "Target": "SF-268 CNS",
    "Class Label": "True"
  },
  {
    "Molecule": "COc1ccc(Cn2nc3c(c2-c2cc(OC)c(OC)c(OC)c2)-c2oncc2CC3)cc1",
    "Target": "SF-268 CNS",
    "Class Label": "True"
  },
  {
    "Molecule": "C#CC(=O)Nc1cccc2c1cc(C)n2-c1nc2c(c(NCc3ccccc3)n1)CCCC2",
    "Target": "SF-268 CNS",
    "Class Label": "False"
  },
  {
    "Molecule": "COc1ccccc1OCC(=O)N1CCCCCC1",
    "Target": "SF-268 CNS",
    "Class Label": "True"
  },
  {
    "Molecule": "O=C1Nc2c(ccc(Cl)c2Cl)/C1=C/c1ccc([N+](=O)[O-])cc1",
    "Target": "SF-268 CNS",
    "Class Label": "True"
  },
  {
    "Molecule": "CCN(CC)CCCC(C)Nc1c2c(nc3ccc(OC)cc13)CCCC2 (stereo not given)",
    "Target": "SF-268 CNS",
    "Class Label": "False"
  },
  {
    "Molecule": "C=C(C)[C@@H]1CC[C@]2(C(=O)NCC(=O)OC)CC[C@]3(C)[C@H](CC[C@@H]4[C@@]5(C)Cc6c([nH]c7ccccc67)C(C)(C)[C@@H]5CC[C@]43C)[C@@H]12",
    "Target": "SF-268 CNS",
    "Class Label": "False"
  },
  {
    "Molecule": "NC(=S)N/N=C(\\c1ccc(Cl)cc1)C1CC1",
    "Target": "SF-268 CNS",
    "Class Label": "True"
  }
]
